measured.on: human CCR6 (Homo sapiens)
Construct: expressed in transfected cells; host or cells: HEK-293
assay: FLIPR assay (inhibition of CCL20-induced calcium signal)
Format: cell-based
condition.context: HEK-293 cells expressing human CCR6; mean values where determined several times; read-out: FLIPR IC50
# Lookup of reported pIC50 keyed by entry
# pIC50: negative log10 of molar concentration; output just the value

Example entries begin here.
- compound: "CC(C)c1ccc([C@](O)(c2cnnc(OC3CCC(F)(F)C3)c2)C2(C)CN(C)C2)cc1 (stereo partly shown)"
  pIC50: 7.60
- compound: "Cc1cnc(C(C)(O)C#Cc2cncc([C@@](O)(c3ccc(C(C)C)cc3)C3(C)CN(C)C3)c2)cn1 (stereo partly shown)"
  pIC50: 7.27
- compound: "CC(C)c1ccc([C@](O)(c2cnnc(Oc3ccc4c(c3)CCCO4)c2)C2(C)CN(C)C2)cc1"
  pIC50: 7.46
- compound: "CC(C)c1ccc([C@](O)(c2cncc(C#CC(C)(C)N3CCOC3=O)c2)C2(C)CN(C)C2)cc1"
  pIC50: 7.15
- compound: "Cc1cnc(-c2cncc(C(O)(c3ccc(C(C)C)cc3)C3(C)CN(C)C3)c2)s1 (stereo not shown)"
  pIC50: 7.44
- compound: "COc1cccc(-c2nc(-c3cncc([C@@](O)(c4ccc(C(C)C)cc4)C4(C)CN(C)C4)c3)no2)c1"
  pIC50: 7.62
- compound: "CC(C)c1ccc([C@](O)(c2cncc(-c3noc(C(C)(C)O)n3)c2)C2(C)CN(C)C2)cc1Cl"
  pIC50: 6.21
- compound: "CC(C)c1ccc([C@](O)(c2cncc(N3CCC4(CCC4)C3=O)c2)C2(C)CN(C)C2)cc1"
  pIC50: 7.15
- compound: "CC(C)c1ccc([C@](O)(c2cncc(C#CC3(N4CCOC4=O)CC3)c2)C2(C)CN(C)C2)cc1"
  pIC50: 7.03
- compound: "CCc1ccc([C@](O)(c2cncc(N3CCCC3)c2)C2(C)CN(C)C2)cc1"
  pIC50: 7.66

Req: Request: pIC50, test system human CCR6 (Homo sapiens), entry CC(C)c1ccc([C@](O)(c2cncc(-c3nc(C4CCN(C(=O)C5COCCO5)CC4)no3)c2)C2(C)CN(C)C2)cc1 (stereo partly shown)
Resp: 6.73

Req: Entry CC(C)c1ccc([C@](O)(c2cncc(-c3noc(C4(O)CCCC4)n3)c2)C2(C)CN(C)C2)cc1 , system human CCR6 (Homo sapiens): what pIC50 was measured?
Resp: 7.38

Req: Request: pIC50, test system human CCR6 (Homo sapiens), entry CN1CC(C)([C@](O)(c2ccc(OC(F)(F)F)cc2)c2cncc(-c3noc(C(C)(C)O)n3)c2)C1
Resp: 7.21

---

measured.on: human CCR6 (Homo sapiens, UniProt P51684)
Construct: expressed in transfected cells; host or cells: HEK-293
Sequence (P51684 whole entry): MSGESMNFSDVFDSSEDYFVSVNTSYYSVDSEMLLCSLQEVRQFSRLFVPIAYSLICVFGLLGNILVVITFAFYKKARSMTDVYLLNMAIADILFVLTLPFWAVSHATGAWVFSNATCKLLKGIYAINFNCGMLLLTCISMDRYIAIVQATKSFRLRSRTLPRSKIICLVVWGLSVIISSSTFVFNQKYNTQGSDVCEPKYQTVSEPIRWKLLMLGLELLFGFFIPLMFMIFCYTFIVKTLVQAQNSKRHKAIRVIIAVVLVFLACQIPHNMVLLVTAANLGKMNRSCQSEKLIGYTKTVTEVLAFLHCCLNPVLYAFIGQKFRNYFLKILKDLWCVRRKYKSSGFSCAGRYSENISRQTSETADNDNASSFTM
assay: FLIPR assay (inhibition of CCL20-induced calcium signal)
Format: cell-based
condition.context: HEK-293 cells expressing human CCR6; mean values where determined several times; read-out: FLIPR IC50
measured.metric: pIC50
Please keep in mind that pIC50 is minus log10 of the molar concentration; only the number is needed.

Please review the following examples before continuing.
- compound: "CCCN1CC(C)([C@](O)(c2ccc(OC(F)(F)F)cc2)c2cncc(N3CCCC3)c2)C1 [Example 4]"
  measured.on: "human CCR6 (Homo sapiens, UniProt P51684)"
  pIC50: 7.44
- compound: "CC(C)c1ccc(C(O)(c2cnc(N3CCCC3)nc2)C2(C)CN(C)C2)cc1 (stereo not drawn) [Example 330]"
  measured.on: "human CCR6 (Homo sapiens, UniProt P51684)"
  pIC50: 6.84
- compound: "CC(=O)N1CC[C@H](c2nc(-c3cncc([C@@](O)(c4ccc(C(C)C)cc4)C4(C)CN(C)C4)c3)no2)C1 [Example 348]"
  measured.on: "human CCR6 (Homo sapiens, UniProt P51684)"
  pIC50: 6.87
- compound: "CC(=O)N1CCC(CC#Cc2cncc([C@@](O)(c3ccc(C(C)C)cc3)C3(C)CN(C)C3)c2)CC1 [Example 600]"
  measured.on: "human CCR6 (Homo sapiens, UniProt P51684)"
  pIC50: 7.34
- compound: "CC(C)c1ccc([C@](O)(c2cncc(-c3noc(CC4CCOCC4)n3)c2)C2(C)CN(C)C2)cc1 [Example 110]"
  measured.on: "human CCR6 (Homo sapiens, UniProt P51684)"
  pIC50: 7.41

Req: Could you share which pIC50 value was measured for COC(C)(C)c1noc(-c2cncc([C@@](O)(c3ccc(C(C)C)cc3)C3(C)CN(C)C3)c2)n1 [Example 100] ?
Resp: 7.16
